- System: influenza B virus B/Wisconsin/1/2010 (Yamagata)
- method: in vitro
- conditions used: dog, MDCK
readout: selectivity ratio
Just the number, please, no unit after it.

# selectivity ratio lookup, item O=c1[nH]c2ccccc2n1C1CCN(C(CCc2ccccc2)c2nnnn2-c2ccc3c(c2)OCCO3)CC1 (centres unmarked)
19.3

---

- System: influenza B virus B/Utah/09/2014 (Yamagata)
- method: in vitro
- conditions used: dog, MDCK
readout: selectivity ratio

# selectivity ratio lookup, item C[C@@H](c1ccccc1)n1nnnc1[C@H](c1ccsc1)N1CCC(n2c(=O)[nH]c3ccccc32)CC1 [Compound 12a]
> 100

---

- method: in vitro
- conditions used: human
readout: CC50 (µM)
A number alone suffices; assume µM.

# CC50 lookup, item C[C@@H](c1ccccc1)n1nnnc1[C@H](c1ccsc1)N1CCC(n2c(=O)[nH]c3ccccc32)CC1 [Compound 12a]
98.1

// provenance: paper PMC5854701
